Values were extracted from patent US9573899B2.

This listing pairs compounds with measured pIC50.
target_desc: USP7, full-length, native C-Terminus (Homo sapiens, UniProt Q93009)
Construct: USP7, full-length, native C-Terminus, 0.2 nM
Sequence (Q93009 whole entry): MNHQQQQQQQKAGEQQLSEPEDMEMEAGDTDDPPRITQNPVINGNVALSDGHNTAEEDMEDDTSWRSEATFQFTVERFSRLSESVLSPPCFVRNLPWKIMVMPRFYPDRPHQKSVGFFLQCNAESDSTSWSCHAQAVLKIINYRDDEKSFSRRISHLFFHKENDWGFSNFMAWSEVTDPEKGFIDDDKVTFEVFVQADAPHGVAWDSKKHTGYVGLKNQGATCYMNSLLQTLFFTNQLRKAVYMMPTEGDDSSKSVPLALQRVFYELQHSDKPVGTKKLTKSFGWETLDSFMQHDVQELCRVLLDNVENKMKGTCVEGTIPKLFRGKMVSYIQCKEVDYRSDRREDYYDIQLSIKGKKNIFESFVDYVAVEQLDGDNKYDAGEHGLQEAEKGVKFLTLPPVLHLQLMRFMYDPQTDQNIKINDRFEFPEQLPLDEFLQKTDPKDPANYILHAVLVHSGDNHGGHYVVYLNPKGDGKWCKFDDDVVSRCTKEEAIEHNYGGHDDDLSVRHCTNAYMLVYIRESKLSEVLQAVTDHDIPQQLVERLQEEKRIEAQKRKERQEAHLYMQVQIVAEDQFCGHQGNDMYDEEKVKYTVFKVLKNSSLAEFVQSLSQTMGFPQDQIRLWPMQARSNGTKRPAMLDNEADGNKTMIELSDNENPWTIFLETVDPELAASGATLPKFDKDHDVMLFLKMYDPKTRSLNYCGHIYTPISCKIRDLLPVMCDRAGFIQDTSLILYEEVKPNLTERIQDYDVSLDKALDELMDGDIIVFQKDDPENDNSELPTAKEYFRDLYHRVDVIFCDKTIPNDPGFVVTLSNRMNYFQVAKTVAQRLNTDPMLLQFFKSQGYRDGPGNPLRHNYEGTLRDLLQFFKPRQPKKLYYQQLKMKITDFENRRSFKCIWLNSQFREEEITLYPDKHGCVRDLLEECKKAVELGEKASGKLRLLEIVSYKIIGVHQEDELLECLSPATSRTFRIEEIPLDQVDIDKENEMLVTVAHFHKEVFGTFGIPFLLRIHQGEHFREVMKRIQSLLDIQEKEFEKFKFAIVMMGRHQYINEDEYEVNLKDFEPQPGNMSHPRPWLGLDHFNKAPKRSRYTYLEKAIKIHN
method_notes: Biochemical USP7 assay with Ubiquitin-Rho110 substrate, compounds pre-incubated with USP7 (USP7_Ub-Rho preInc)
details: compounds pre-mixed with USP7, 1 hour incubation, before substrate; read-out: USP7 Ub-Rho preInc (IC50)
pIC50: −log10 of the molar value.
value_kind: pIC50

>  <chemical_string>
CCc1c(-c2ccc(O)cc2)cnc(N)c1-c1ccc(N(C)C(=O)OC(C)(C)C)cc1

>  <test_result>
< 4.70

$$$$
>  <chemical_string>
CCc1c(-c2cccc3nn(C)cc23)cnc(N)c1-c1ccc(O)cc1

>  <test_result>
4.84

$$$$
>  <chemical_string>
CCc1c(-c2ccccc2C)cnc(N)c1-c1ccc(O)cc1

>  <test_result>
< 4.20

$$$$
>  <chemical_string>
CCc1c(-c2ccc(O)cc2)cnc(N)c1-c1cccc(NC(=O)OC(C)(C)C)c1

>  <test_result>
< 4.70

$$$$

----------
target_desc: USP7, full-length, native C-Terminus (Homo sapiens)
Construct: USP7, full-length, native C-Terminus, 0.2 nM
method_notes: Biochemical USP7 assay with Ubiquitin-Rho110 substrate, compounds pre-incubated with USP7 (USP7_Ub-Rho preInc)
details: compounds pre-mixed with USP7, 1 hour incubation, before substrate; read-out: USP7 Ub-Rho preInc (IC50)
IC50 strictly under 50 µM means Condition met; at 50 µM or over means Condition not met.

>  <compound>
CCc1c(-c2ccc(O)cc2)cnc(N)c1-c1cccc(COC)c1 [Compound 24]

>  <target_desc>
USP7, full-length, native C-Terminus (Homo sapiens)

>  <class_name>
Condition not met

$$$$
>  <compound>
CCc1c(-c2ccc(O)c(C#N)c2)cnc(N)c1-c1ccc(O)cc1 [Compound 94]

>  <target_desc>
USP7, full-length, native C-Terminus (Homo sapiens)

>  <class_name>
Condition met

$$$$
>  <compound>
CCc1c(-c2ccc(O)cc2)cnc(N)c1-c1cccc(N2CCOCC2)c1 [Compound 22]

>  <target_desc>
USP7, full-length, native C-Terminus (Homo sapiens)

>  <class_name>
Condition not met

$$$$
>  <compound>
CCc1c(-c2cnc(OC)nc2)cnc(N)c1-c1ccc(O)cc1 [Compound 83]

>  <target_desc>
USP7, full-length, native C-Terminus (Homo sapiens)

>  <class_name>
Condition not met

$$$$
>  <compound>
CCc1c(-c2ccc(O)cc2)cnc(N)c1-c1ccc2[nH]ncc2c1 [Compound 87]

>  <target_desc>
USP7, full-length, native C-Terminus (Homo sapiens)

>  <class_name>
Condition met

$$$$
>  <compound>
CCc1c(-c2ccccc2Cl)cnc(N)c1-c1ccc(O)cc1 [Compound 78]

>  <target_desc>
USP7, full-length, native C-Terminus (Homo sapiens)

>  <class_name>
Condition met

$$$$
>  <compound>
CCc1c(-c2ccc(N)cc2)cnc(N)c1-c1ccc(O)cc1 [Compound 91]

>  <target_desc>
USP7, full-length, native C-Terminus (Homo sapiens)

>  <class_name>
Condition met

$$$$
>  <compound>
CCc1c(-c2ccc(C#N)cc2)cnc(N)c1-c1ccc(O)cc1 [Compound 51]

>  <target_desc>
USP7, full-length, native C-Terminus (Homo sapiens)

>  <class_name>
Condition met

$$$$
>  <compound>
CCc1c(-c2cncnc2)cnc(N)c1-c1ccc(O)cc1 [Compound 32]

>  <target_desc>
USP7, full-length, native C-Terminus (Homo sapiens)

>  <class_name>
Condition not met

$$$$
>  <compound>
CCc1c(-c2ccc(OC)nc2)cnc(N)c1-c1ccc(O)cc1 [Compound 68]

>  <target_desc>
USP7, full-length, native C-Terminus (Homo sapiens)

>  <class_name>
Condition not met

$$$$
>  <compound>
CCc1c(-c2ccc(O)cc2)cnc(N)c1-c1ccccc1 [Compound 16]

>  <target_desc>
USP7, full-length, native C-Terminus (Homo sapiens)

>  <class_name>
Condition not met

$$$$
>  <compound>
CCc1c(-c2cccc(N)c2)cnc(N)c1-c1ccc(O)cc1 [Compound 90]

>  <target_desc>
USP7, full-length, native C-Terminus (Homo sapiens)

>  <class_name>
Condition met

$$$$
>  <compound>
CCc1c(-c2ccncc2)cnc(N)c1-c1ccc(O)cc1 [Compound 38]

>  <target_desc>
USP7, full-length, native C-Terminus (Homo sapiens)

>  <class_name>
Condition not met

$$$$
>  <compound>
CCc1c(-c2ccc3[nH]ncc3c2)cnc(N)c1-c1ccc(O)cc1 [Compound 88]

>  <target_desc>
USP7, full-length, native C-Terminus (Homo sapiens)

>  <class_name>
Condition met

$$$$
>  <compound>
CCc1c(-c2ccc(C(N)=O)cc2)cnc(N)c1-c1ccc(O)cc1 [Compound 45]

>  <target_desc>
USP7, full-length, native C-Terminus (Homo sapiens)

>  <class_name>
Condition met

$$$$
>  <compound>
CCc1c(-c2ccccc2)cnc(N)c1-c1ccc(O)cc1 [Compound 37]

>  <target_desc>
USP7, full-length, native C-Terminus (Homo sapiens)

>  <class_name>
Condition met

$$$$
>  <compound>
CCc1c(-c2ccnc(C)c2)cnc(N)c1-c1ccc(O)cc1 [Compound 73]

>  <target_desc>
USP7, full-length, native C-Terminus (Homo sapiens)

>  <class_name>
Condition met

$$$$
>  <compound>
CCc1c(-c2ccc(O)cc2)cnc(N)c1-c1cccc(C#N)c1 [Compound 19]

>  <target_desc>
USP7, full-length, native C-Terminus (Homo sapiens)

>  <class_name>
Condition met

$$$$
>  <compound>
CCc1c(-c2ccc(O)cc2)cnc(N)c1-c1ccc(O)c(C#N)c1 [Compound 72]

>  <target_desc>
USP7, full-length, native C-Terminus (Homo sapiens)

>  <class_name>
Condition met

$$$$
